ASSAY TEXT: qHTS for Inhibitors of TGF-b; note: nearly all actives have a fitted effect of over 65% in size
CONDITION SET: HepG2 CAGA-GFP TGF-b/SMAD3 reporter, GFP fluorescence, 18 h, TGF-beta stimulated, 500 pg/mL final; series mostly up to 46.1 µM
Among all 410,000 compounds or so, about 5,000 (1.2%) were called active. Inconclusive results (about 13%) are left out. Calls come from the whole dose curve; as a rule, active = well fitted inhibition curve with a large enough effect; inconclusive = small, poorly fitted or top-dose-only effect; inactive = no such curve, though single readings can be large or run the other way. This excerpt belongs to a sample that is enriched for actives.
Entry note: the call must match one of T for active, F for inactive

Consider the following illustrative entries.
In [3]: df
Out[3]:
                                 cpd_smiles  assigned_category
0  CCOc1ccc(CCN2C(=S)N([C@@H](CC(C)C)CN3CCC[C@@H]3CN3C(=S)NC[C@@H]3Cc3ccc(O)cc3)C[C@@H]2Cc2ccc(O)cc2)cc1                  T
1  CC[C@@H](C)[C@@H]1CN([C@@H](C)CN2CCC[C@H]2CN2C(N)=NC[C@H]2C(C)C)C(=N)N1CCc1ccc(Cl)c(Cl)c1                  F

Q: I'd appreciate the recorded outcome for O=C(NCCN1CCOCC1)c1cc(Sc2cccc(Cl)c2)nc2ccccc12 from this test.
Result: F

* * *

ASSAY TEXT: qHTS for Inhibitors of TGF-b; note: nearly all actives have a fitted effect of over 65% in size
CONDITION SET: HepG2 CAGA-GFP TGF-b/SMAD3 reporter, GFP fluorescence, 18 h, TGF-beta stimulated, 500 pg/mL final; series mostly up to 46.1 µM
Source text: TGF-b is a main component in the TGF-b signaling pathway which plays diverse roles in cellular and development pathways. TGF-b is the mediated by the transcription factors Smads. […] We aim to identify Smad3-small molecule antagonists using a quantitative high throughput screening (qHTS) approach. […] Concentration-response curves were fitted to the signals arising from the resulting fluorescence. […]
Screen size: about 410,000 compounds; about 5,000 (1.2%) were called active. Roughly 13% stayed inconclusive and do not appear here. Calls come from the whole dose curve; as a rule, active = well fitted inhibition curve with a large enough effect; inconclusive = small, poorly fitted or top-dose-only effect; inactive = no such curve, though single readings can be large or run the other way. This excerpt belongs to a sample that is enriched for actives.
Entry note: the call must match one of active, inactive

Consider the following illustrative entries.
>>> df
                                   molecule  assigned_category
0     Cc1cc(OCC(=O)Nc2ncn[nH]2)c(C)c(C)c1Br           inactive
1  CCOc1ccc(CNC(=O)c2ccc(CS(=O)c3ccccc3)o2)cc1 (configuration not stated)           inactive
2   Cc1onc(NC(=O)c2ccc([N+](=O)[O-])o2)c1Br             active
3  O=C(Nc1cc(C(F)(F)F)ccc1Cl)c1ccc2c(c1)CCN2S(=O)(=O)c1ccccc1           inactive
4  Cc1ccccc1CS(=O)(=O)CC1Nc2ccc(C(=O)NCc3ccc(Cl)cc3)cc2NC1=O (configuration not stated)           inactive
5  CCCCNC(=O)C1CCCN(c2nnc(C)c3c(C)n(-c4ccc(Cl)cc4)nc23)C1 (configuration not stated)           inactive
6  O=C(CCl)N(Cc1cccc([N+](=O)[O-])c1)c1cccc(Cl)c1             active
7  COc1cc(OC)c(NC(=O)c2c3c(nn2C)-c2ccccc2SC3)cc1Cl           inactive

Q: I'd appreciate the recorded outcome for N#Cc1ccc[n+](CC(=O)c2ccc(F)cc2)c1 from this test.
Result: inactive

Q: I'd appreciate the recorded outcome for COc1cc2[nH]c(C)c(CCN3CCN(c4ccccc4)CC3)c2cc1OC from this test.
Result: inactive

Q: I'd appreciate the recorded outcome for CN(C)Cc1cn(-c2ccccc2)nc1-c1ccccc1 from this test.
Result: inactive

Q: I'd appreciate the recorded outcome for Cc1nnc(N2CCCC(C(=O)NCCN(C)C)C2)c2nn(-c3ccccc3)c(C)c12 (configuration not stated) from this test.
Result: inactive

* * *

ASSAY TEXT: qHTS for Inhibitors of TGF-b; note: nearly all actives have a fitted effect of over 65% in size
CONDITION SET: HepG2 CAGA-GFP TGF-b/SMAD3 reporter, GFP fluorescence, 18 h, TGF-beta stimulated, 500 pg/mL final; series mostly up to 46.1 µM
Hit rate of the full screen: of about 410,000 compounds, about 5,000 (1.2%) were called active. About 13% were inconclusive and are not listed. Calls come from the whole dose curve; as a rule, active = well fitted inhibition curve with a large enough effect; inconclusive = small, poorly fitted or top-dose-only effect; inactive = no such curve, though single readings can be large or run the other way. The sample holds actives, similar compounds and a random draw of the others, so the mix is not that of the screen.
Entry note: the call must match one of active, inactive

>>> print(df.to_string())
                                   compound  assigned_category
0  O=C(NCc1cccs1)c1cc(-c2ccccn2)nc2ccc(Br)cc12           inactive

Q: I'd appreciate the recorded outcome for COc1ccc(S(=O)(=O)c2c(Nc3ccc(C)cc3)sc(C(=O)c3ccc(C)cc3)c2N)cc1 from this test.
Result: inactive

Q: I'd appreciate the recorded outcome for CC(C)(C)SCCNC(=O)c1cccc([N+](=O)[O-])c1 from this test.
Result: inactive

Q: I'd appreciate the recorded outcome for CCOC(=O)c1ccc(N2C(=O)c3n[nH]c(C)c3C2c2ccc(O)c(OC)c2)cc1 (centres undefined) from this test.
Result: active

* * *

ASSAY TEXT: qHTS for Inhibitors of TGF-b; note: nearly all actives have a fitted effect of over 65% in size
CONDITION SET: HepG2 CAGA-GFP TGF-b/SMAD3 reporter, GFP fluorescence, 18 h, TGF-beta stimulated, 500 pg/mL final; series mostly up to 46.1 µM
The whole screen tested about 410,000 compounds, of which about 5,000 (1.2%) were called active. Another 13% or so got no clear call; they are omitted. The call rests on the fitted dose curve; in most records, active means well fitted inhibition curve with a large enough effect; inconclusive means small, poorly fitted or top-dose-only effect; inactive means no such curve, though single readings can be large or run the other way. This is one part of a sample in which actives are shown more often than they occur.
Entry note: the call must match one of active, inactive

Consider the following illustrative entries.
                                   compound  assigned_category
0  Cc1nn(CC(=O)N2CCN(c3cccc(C(F)(F)F)c3)CC2)c(=O)c2cc3sccc3n12           inactive
1  CCN(C(=O)COc1ccc(C(=O)c2ccccc2)cc1)c1ccccc1           inactive
2  O=C(c1ccc(S(=O)(=O)N2CCCC2)cc1)N1CCN(c2ccccc2F)CC1           inactive

Okay, now this compound:
Q: I'd appreciate the recorded outcome for Oc1ccc(Cl)cc1C1C=C(c2ccc3c(c2)OCO3)NC(c2ccc(F)c(Br)c2)N1 (centres undefined) from this test.
Result: active

* * *

ASSAY TEXT: qHTS for Inhibitors of TGF-b; note: nearly all actives have a fitted effect of over 65% in size
CONDITION SET: HepG2 CAGA-GFP TGF-b/SMAD3 reporter, GFP fluorescence, 18 h, TGF-beta stimulated, 500 pg/mL final; series mostly up to 46.1 µM
Screen size: about 410,000 compounds; about 5,000 (1.2%) were called active. Another 13% or so got no clear call; they are omitted. Calls follow the shape of the dose curve; as a rule, active = well fitted inhibition curve with a large enough effect; inconclusive = small, poorly fitted or top-dose-only effect; inactive = no such curve, though single readings can be large or run the other way. The entries come from a sample that favours actives as a whole.
Entry note: the call must match one of true for active, false for inactive

Consider the following illustrative entries.
>>> print(df.to_string())
                                   compound  assigned_category
0           O=S(=O)(NCc1ccccc1Br)c1ccccc1Br              false
1  CCOC(=O)c1c(NC(=O)c2ccc(S(=O)(=O)N3CCCC(C)C3)cc2)sc2c1CCN(C(C)C)C2 (stereo not given)              false
2  CCC(=O)N1CCc2cc(S(=O)(=O)NCCC(=O)Nc3cccc(C)c3C)ccc21              false
3  Cc1ccc(NC(=O)CSc2nc3c([nH]c4ccccc43)c(=O)n2-c2ccccc2)c(C)c1              false
4  O=C(NNC(=O)C(O)c1ccccc1)NC1CCCCC1 (stereo not given)              false
5  CCCn1ccc2c(OCC(=O)NCc3ccc(F)cc3)cccc2c1=O              false
6    CCN([C@H](CO)C(C)C)S(=O)(=O)c1ccccc1Br              false
7       O=C(CSc1cccc2cccnc12)N/N=C/c1cccnc1               true
8  CN1CCN(c2oc(-c3ccc(COc4ccc(Cl)cc4)o3)nc2C#N)CC1              false
9   COc1ccc(S(=O)(=O)NCCCCOc2ccc(Cl)cc2)cc1               true

Q: I'd appreciate the recorded outcome for O=C(N/N=C\c1cccnc1)c1cc(-c2ccccc2)nc2c(Cl)cccc12 from this test.
Result: false

* * *

ASSAY TEXT: qHTS for Inhibitors of TGF-b; note: nearly all actives have a fitted effect of over 65% in size; note: potency is the fitted concentration of half-maximal effect
CONDITION SET: HepG2 CAGA-GFP TGF-b/SMAD3 reporter, GFP fluorescence, 18 h, TGF-beta stimulated, 500 pg/mL final; series mostly up to 46.1 µM
Screen size: about 410,000 compounds; about 5,000 (1.2%) were called active. Inconclusive results (about 13%) are left out. The entries come from a sample that favours actives as a whole.
OBSERVATION TYPE: Potency

Past entries and their recorded results:
>>> df
                                   compound            result
0  O=C(Nc1nnc(SCc2c(Cl)cccc2Cl)s1)c1cccc([N+](=O)[O-])c1          inactive
1        O=C(Cc1coc2ccc3ccccc3c12)NCc1cccs1          inactive
2  COC(=O)c1ccc(-c2nc3cc(NC(C)=O)ccc3o2)cc1          inactive
3  CCN1CCN(c2ccc(/C=C/c3ccnc4ccccc34)cc2)CC1          inactive
4  CCCCNc1ccc(-c2nc(-c3ccncc3)no2)cc1[N+](=O)[O-]          inactive
5  O=C(Nc1ccccc1Cl)/C(Cl)=C(\Cl)S(=O)c1ccccc1 (stereo not given)  2.24 µM (active)
6    Cc1ccc2nc(/C(C#N)=C/c3ccccc3F)[nH]c2c1          inactive
7    CCOC(=O)c1ccc(NC(=O)CNC(=O)c2ccco2)cc1          inactive
8  Cc1cccc(OCC(=O)N(Cc2ccc(C(C)C)cc2)Cc2ccco2)c1C          inactive

// Potency lookup, compound = CCOC(=O)c1ccc(N2C(=O)c3n[nH]c(-c4ccco4)c3C2c2ccc(O)cc2)cc1 (stereo not given) , result: 15.8 µM (active)
